# System: 186277-243-T-J2-PDC complex spheroids, viability;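 also: spheroids exposed to compounds for 7 days before viability read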
# experimental-details: Anticancer human tumor 186277-243-T-J2-PDC patient-derived colon adenocarcinoma cell line growth inhibition [RAS]; active = viability on the fitted dose curve at most 10% of control; inactive = the rest
# assay-context: second compound 10 µM; first compound 3.16 µM
Answer with one of the outcomes given here: 1 = active, -1 = inactive

The examples below pair each entry with its known result.
{"compound": "CC(Nc1ccc2c(c1)OCCn1cc(N3C(=O)OCC3C(F)F)nc1-2)C(N)=O (stereo not drawn) + C#Cc1c(F)ccc2cc(O)cc(-c3ncc4c(N5CC6CCC(C5)N6)nc(OCC56CCCN5CC(F)C6)nc4c3F)c12", "category-label": 1}
{"compound": "CC(C)NCC(C(=O)N1CCN(c2ncnc3c2C(C)CC3O)CC1)c1ccc(Cl)cc1 (stereo not drawn) + C#Cc1c(F)ccc2cc(O)cc(-c3ncc4c(N5CC6CCC(C5)N6)nc(OCC56CCCN5CC(F)C6)nc4c3F)c12", "category-label": 1}
{"compound": "NC1c2ccccc2OC12CCN(c1cnc3c(N4CCCc5ncccc54)n[nH]c3n1)CC2 (stereo not drawn) + C#Cc1c(F)ccc2cc(O)cc(-c3ncc4c(N5CC6CCC(C5)N6)nc(OCC56CCCN5CC(F)C6)nc4c3F)c12", "category-label": 1}

Exam item: Call for entry C[C@@H](NC(=O)c1ncnc(N)c1Cl)c1ncc(C(=O)Nc2cc(C(F)(F)F)c(Cl)cn2)s1 + C#Cc1c(F)ccc2cc(O)cc(-c3ncc4c(N5CC6CCC(C5)N6)nc(OCC56CCCN5CC(F)C6)nc4c3F)c12 :
Marked response: -1

Exam item: Do the same for Cc1nc(N2CCC3(CC2)COC(C)C3N)c(CO)nc1Sc1ccnc(N)c1Cl (stereo not drawn) + C#Cc1c(F)ccc2cc(O)cc(-c3ncc4c(N5CC6CCC(C5)N6)nc(OCC56CCCN5CC(F)C6)nc4c3F)c12 please
Marked response: 1

Exam item: Also, CCC(CC)c1cc(NC2CCC(N)C2)n2nccc2n1 (stereo not drawn) + C#Cc1c(F)ccc2cc(O)cc(-c3ncc4c(N5CC6CCC(C5)N6)nc(OCC56CCCN5CC(F)C6)nc4c3F)c12 please.
Marked response: 1

Exam item: Quick one: CC1(O)CCCC1n1c(=O)c(C(F)F)cc2cnc(NC3CCN(S(C)(=O)=O)CC3)nc21 (stereo not drawn) + C#Cc1c(F)ccc2cc(O)cc(-c3ncc4c(N5CC6CCC(C5)N6)nc(OCC56CCCN5CC(F)C6)nc4c3F)c12
Marked response: 1

Exam item: Another compound to look at: CC(=O)OC12COC1CC(O)C1(C)C(=O)C(O)C3=C(C)C(OC(=O)C(O)C(NC(=O)OC(C)(C)C)c4ccccc4)CC(O)(C(OC(=O)c4ccccc4)C21)C3(C)C (stereo not drawn) + C#Cc1c(F)ccc2cc(O)cc(-c3ncc4c(N5CC6CCC(C5)N6)nc(OCC56CCCN5CC(F)C6)nc4c3F)c12
Marked response: 1
